# System: SK-OV-3 ovarian cancer cells
# measurement.protocol: QTX125-containing combination therapy, hexosaminidase cell viability
# Assay type: cell-based
# assay.setup: Homo sapiens, SK-OV-3, SK-Ov-3; + gemcitabine at EC50 dose (0.25 μM)
assay.readout: pEC50
Please report pEC50 as the negative decimal logarithm of the molar concentration, giving only the number.

Entry O=C(NO)c1ccc(CNC(=O)c2[nH]c(-c3ccc(O)cc3)cc2-c2ccoc2)cc1 [QTX125] , tested on SK-OV-3 ovarian cancer cells, has a reported pEC50 of 6.52

---

# System: Panc-1 pancreatic cancer cells
# measurement.protocol: Cell viability, ALAMAR blue assay, monotherapy
# Format: cell-based
# assay.setup: Homo sapiens, 72 h, read-out: EC50 dose of monotherapy
assay.readout: EC50 (nM)
Report as a plain number; the unit nM is understood.

Below: 2 compounds and their reported EC50.
Entry O=C(NO)c1ccc(CNC(=O)c2[nH]c(-c3ccc(O)cc3)cc2-c2ccoc2)cc1 [QTX125] , tested on Panc-1 pancreatic cancer cells, has a reported EC50 of 1400

Entry CC(C)C[C@H](NC(=O)[C@H](Cc1ccccc1)NC(=O)c1cnccn1)B(O)O [bortezomib] , tested on Panc-1 pancreatic cancer cells, has a reported EC50 of 6.2

Switching to the query record.
Entry CNC(=O)c1cc(Oc2ccc(NC(=O)Nc3ccc(Cl)c(C(F)(F)F)c3)cc2)ccn1 [sorafenib] , tested on Panc-1 pancreatic cancer cells, has a reported EC50 of 7200

---

# Test system: Hep-G2 hepatic cancer cells
# measurement.protocol: QTX125-containing combination therapy, hexosaminidase cell viability
# Format: cell-based
# assay.setup: Homo sapiens, HepG2, Hep-G2; + gemcitabine at EC25, nominal dose 1 μM
# Experimental: To assess the oncolytic efficacy of QTX125-containing combination therapies in vitro, colonic, pancreatic, hepatic and ovarian tumour cells were administered sorafenib, gemcitabine or bortezomib at EC25, EC50 and EC75 doses. QTX125 was co-administered in order to produce a dose response curve. […] For the hexosaminidase assay, media containing QTX125 and the test chemotherapeutic agents was removed, and cells were washed once with PBS. […] Absorbance at 410 nm was recorded using a plate reader. […]
assay.readout: EC50 (nM)
Report as a plain number; the unit nM is understood.

GET /value?item= O=C(NO)c1ccc(CNC(=O)c2[nH]c(-c3ccc(O)cc3)cc2-c2ccoc2)cc1 [QTX125] &field=EC50 returns 744

---

Collected pEC50 values appear next to each entry.
# Test system: MiaPaCa-2 pancreatic cancer cells
# measurement.protocol: Cell viability, hexosaminidase assay, monotherapy
# Assay type: cell-based
# assay.setup: Homo sapiens, MIA PaCa-2, 72 h, read-out: EC50 dose of monotherapy
Please report pEC50 as the negative decimal logarithm of the molar concentration, giving only the number.

Below: 3 compounds and their reported pEC50.
GET /value?item= `CC(C)C[C@H](NC(=O)[C@H](Cc1ccccc1)NC(=O)c1cnccn1)B(O)O` &field=pEC50 returns 8.07

GET /value?item= `CNC(=O)c1cc(Oc2ccc(NC(=O)Nc3ccc(Cl)c(C(F)(F)F)c3)cc2)ccn1` &field=pEC50 returns 5.17

GET /value?item= `O=C(NO)c1ccc(CNC(=O)c2[nH]c(-c3ccc(O)cc3)cc2-c2ccoc2)cc1` &field=pEC50 returns 5.82

Switching to the query record.
GET /value?item= `Nc1ccn([C@@H]2O[C@H](CO)[C@@H](O)C2(F)F)c(=O)n1` &field=pEC50 returns 7.48
